# Test system: THRa:RXRa (NR concentration 90 nM, RXRa partner concentration 90 nM)
# assay: PBM binding z-score (relative to random genomic background probes); higher = stronger binding; sequences stand for … in GC…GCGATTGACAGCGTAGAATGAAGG
// bucketize PBM binding z-score: bin 0 (below 1), bin 1 (1 to below 3), bin 2 (3 or more)

residues: TCTCGTTGGTCAAAGGTCACACACTCGAAATGCG
system_under_test: THRa:RXRa (NR concentration 90 nM, RXRa partner concentration 90 nM)
class_label: bin 2
//
residues: ATACCAAGGTGATCGTGTGGTCGTTGATACTAAC
system_under_test: THRa:RXRa (NR concentration 90 nM, RXRa partner concentration 90 nM)
class_label: bin 0
//
residues: GGAACGAGGGCACAGTTGATAGCATCTGTCGACG
system_under_test: THRa:RXRa (NR concentration 90 nM, RXRa partner concentration 90 nM)
class_label: bin 1
//
residues: ATGTCTAGGTAAAAGTTCAGTGAATCCCGAGGAT
system_under_test: THRa:RXRa (NR concentration 90 nM, RXRa partner concentration 90 nM)
class_label: bin 1
//
residues: CCTAGTTGGTAAGGAGGTCACACACCGGATATGA
system_under_test: THRa:RXRa (NR concentration 90 nM, RXRa partner concentration 90 nM)
class_label: bin 2
//
residues: CCTATTGGGCCAAAAAGGTCATTGATGCCGATAA
system_under_test: THRa:RXRa (NR concentration 90 nM, RXRa partner concentration 90 nM)
class_label: bin 2
//
residues: ATATGTAGGTTAGCTGGGGTCATTCTGACTAGGC
system_under_test: THRa:RXRa (NR concentration 90 nM, RXRa partner concentration 90 nM)
class_label: bin 2
//
residues: CCGACTGGGGCAAAGGGTACCATACTCAGTACGA
system_under_test: THRa:RXRa (NR concentration 90 nM, RXRa partner concentration 90 nM)
class_label: bin 0
//
residues: GCGACTGGGGCAAAGCAAGTTACCATAAGGTTGG
system_under_test: THRa:RXRa (NR concentration 90 nM, RXRa partner concentration 90 nM)
class_label: bin 0
//
residues: CGAACTAGGTTATTGACAGGACAGTGAATAGTAA
system_under_test: THRa:RXRa (NR concentration 90 nM, RXRa partner concentration 90 nM)
class_label: bin 1
//
residues: GCAGAGAGGTGAAACGCAGGTAACTCAGGGTGGC
system_under_test: THRa:RXRa (NR concentration 90 nM, RXRa partner concentration 90 nM)
class_label: bin 1
//
residues: GTACCTAGGTGAATAGGTCGTTGATGAGTAGGCG
system_under_test: THRa:RXRa (NR concentration 90 nM, RXRa partner concentration 90 nM)
class_label: bin 1
//
residues: ATCGAAAGGTCGAGGTGAGTAGAGAGAAAGGGAA
system_under_test: THRa:RXRa (NR concentration 90 nM, RXRa partner concentration 90 nM)
class_label: bin 1
//
residues: ACTATTAGTTGAGACGAGGCCAACCGATAGGTTG
system_under_test: THRa:RXRa (NR concentration 90 nM, RXRa partner concentration 90 nM)
class_label: bin 1
//
residues: GCGATTGGGGCATCAGCAGGTTACCATAACTTAA
system_under_test: THRa:RXRa (NR concentration 90 nM, RXRa partner concentration 90 nM)
class_label: bin 1
//
residues: ACTATAAGTTGAGACGAGGGCAACCGATAGGTTG
system_under_test: THRa:RXRa (NR concentration 90 nM, RXRa partner concentration 90 nM)
class_label: bin 2
//
residues: ACTAGCAGGCCAAGGGTCCCTCAAGATTAGTCCG
system_under_test: THRa:RXRa (NR concentration 90 nM, RXRa partner concentration 90 nM)
class_label: bin 0
//
residues: TCTGCTAGGTCAACGGTGGTCAGCTAATCTGCTA
system_under_test: THRa:RXRa (NR concentration 90 nM, RXRa partner concentration 90 nM)
class_label: bin 2
//
residues: CCTTACGGGTCACGCGGTTATAGCACGACGAGCG
system_under_test: THRa:RXRa (NR concentration 90 nM, RXRa partner concentration 90 nM)
class_label: bin 2
//
residues: GCTGCTAGGTCAGGGTGGTCAGCTAACGGGTACG
system_under_test: THRa:RXRa (NR concentration 90 nM, RXRa partner concentration 90 nM)
class_label: bin 1
//
residues: CCTGCTAGGTCAGGGTCAGCTAATCTACAGTATG
system_under_test: THRa:RXRa (NR concentration 90 nM, RXRa partner concentration 90 nM)
class_label: bin 2
//
residues: ATACCAACGTGATCGTGAGGTCGTTGATACTAAC
system_under_test: THRa:RXRa (NR concentration 90 nM, RXRa partner concentration 90 nM)
class_label: bin 1
//
residues: AGTCAAAGTTCAGGACGAGGTAACGTACAGCACG
system_under_test: THRa:RXRa (NR concentration 90 nM, RXRa partner concentration 90 nM)
class_label: bin 2
//
residues: AATATTAGTTGAGACGAGGGCAACCGATAGGTTG
system_under_test: THRa:RXRa (NR concentration 90 nM, RXRa partner concentration 90 nM)
class_label: bin 1
//
residues: ATCCCTAGGTAAAGTTCAGTGAAAGATCGATAGA
system_under_test: THRa:RXRa (NR concentration 90 nM, RXRa partner concentration 90 nM)
class_label: bin 1
//
residues: TCATATAGGTAATACAGGAGAAAGTCGGCATCTA
system_under_test: THRa:RXRa (NR concentration 90 nM, RXRa partner concentration 90 nM)
class_label: bin 0
//
residues: TCTTGTAGATCAAGCAGGTTAAGCAAGCCTGAGT
system_under_test: THRa:RXRa (NR concentration 90 nM, RXRa partner concentration 90 nM)
class_label: bin 0
//
residues: CCAAGTTGGTCAAGGTCACACACGCTATAGGTAC
system_under_test: THRa:RXRa (NR concentration 90 nM, RXRa partner concentration 90 nM)
class_label: bin 2
//
residues: GCTGCTAGGTCAGGTTGGTCAGCTGACGGGTACG
system_under_test: THRa:RXRa (NR concentration 90 nM, RXRa partner concentration 90 nM)
class_label: bin 1
//
residues: ACTACTAGTTGAGACGAGGGCAACCGATAGGTTG
system_under_test: THRa:RXRa (NR concentration 90 nM, RXRa partner concentration 90 nM)
class_label: bin 1
//
residues: GCTCGGAGGATAAGGTCAGAGCTTTGTCCGTAGA
system_under_test: THRa:RXRa (NR concentration 90 nM, RXRa partner concentration 90 nM)
class_label: bin 2

###

Some sequences, each annotated with its measured PBM binding z-score.
# System: PPARg:RXRa 30nM:10nM, anti-RXR (NR concentration 30 nM, RXRa partner concentration 10 nM)
# assay: PBM binding z-score (relative to random genomic background probes); higher = stronger binding; sequences stand for … in GC…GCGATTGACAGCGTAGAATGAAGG

residues: AGAACGAGGGCAATGAGTTAATAGCACGGGTGGC
PBM binding z-score: -0.12
--
residues: CCAGACAGGTGAAAGGTAACCCAGTCTGGTACGC
PBM binding z-score: 3.97
--
residues: CCGACTGGGGCCAGGTTACCATAACGCACAGCCA
PBM binding z-score: -0.675
--
residues: AGAATGAGGTTATACGTAGATCACGGAAGAAAGT
PBM binding z-score: 0.729
--
residues: ACTACTAGTTGACTTAGGGCAACCGATACGACGC
PBM binding z-score: 0.432
--
residues: GGAACGAGGGCAAAGTTGATAACATCTGTCGACG
PBM binding z-score: 6.1
--
residues: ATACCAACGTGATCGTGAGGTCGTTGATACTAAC
PBM binding z-score: -0.202
--
residues: CCTAGTGGGCCAAAAAGGTCATTGATGCCGATAA
PBM binding z-score: 1.73
--
residues: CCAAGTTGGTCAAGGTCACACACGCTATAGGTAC
PBM binding z-score: 1.45
--
residues: TCTAGTTGGTCAAACGTCACACACTCGAAATGCG
PBM binding z-score: 4.37
--
residues: GCTTGTAGATCAAGGTTGAGAAAGACTAAGCTAA
PBM binding z-score: 1.77
--
residues: ATACCAAGGTGAACGTGAGGTCGTTGATACTAAC
PBM binding z-score: 0.56
--
residues: TCATATAGGTAAACAGGTGTAAGTCCGTAAGTTA
PBM binding z-score: 3.79
--
residues: CAAACTAGGTCATGGTCAAAGTCGGTTTGTGCCA
PBM binding z-score: 4.7
--
residues: GCTTGTAGATCAAGGTTAAGCAAGACTAAGCTAA
PBM binding z-score: 0.405
--
residues: CCTGCTAGGGCAATGGTCAGCTAAAGCAGCTCGC
PBM binding z-score: 0.695
--
residues: TATACAGGGTCAACGGCCAGAGTACGAATGTCGA
PBM binding z-score: 3.43
--
residues: CGTCAAAGTTCAAGGTAACGTAACAGAAAGCAGC
PBM binding z-score: 2.02
--
residues: CGTCAAAGTTCAAGATAACGTAACAGAAAGCAGC
PBM binding z-score: 2.17
--
residues: GCTGCTAGGTCTACTGATGGTCAGCTAAAGCTCG
PBM binding z-score: -0.649
--
residues: CCTTACGGGTCACGAGGTTATAGGACGACGAGCG
PBM binding z-score: 3.51
--
residues: CCGTACGGGTCACTGACAGGTTATAGCATTTGGA
PBM binding z-score: 0.781
--
residues: TCCAGTTGGTCAAAGGTCACACACTCGAAATGCG
PBM binding z-score: 9.86
--
residues: CCTTACGGGTCACTCCAGGTTATAGCCTCGGAGT
PBM binding z-score: 1.17
--
residues: ATCACTAGGTAACCAAGTTCAGTGAATGCCGAAC
PBM binding z-score: 0.47
--
residues: ATCTCTAGGTAAATATAGTTCAGTGAATGCAAAT
PBM binding z-score: 1.13
--
residues: CAAACTAGGTCAAAGGACAAAGTCGAGCCAACCA
PBM binding z-score: 8.72
--
residues: GCGACTGGGGCAAAGCTGGTTACCATAAGGTTGG
PBM binding z-score: -0.311
--
residues: AGAACGAGGGCGATGAGTTGATAGCACGGGTGGC
PBM binding z-score: -0.297
--
residues: ACGTACGGGTCAACGAGGTTATAGCACGCGTATA
PBM binding z-score: 1.55
--
residues: CGTACTGGGCCATTCAGAGGTCATTGATCATATG
PBM binding z-score: 0.848
--
residues: CCGACTGGGGCATAAGCTTACCATAAGCCAGCCC
PBM binding z-score: -0.348
--
residues: TCTTGTGGATCAAGCAGGTTAAGAAAGCCTGAGT
PBM binding z-score: 2.27
--
residues: CGAACTAGGTCATCCAGGACATTGAATACATTGA
PBM binding z-score: 4.02
--
residues: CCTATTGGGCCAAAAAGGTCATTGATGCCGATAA
PBM binding z-score: 0.941
--
residues: ATCTCTAGGTAACCAAGTTCAGTGAATGCCGAAC
PBM binding z-score: 0.376
--
residues: ATCTCTAGGTAACAAGTCCAGTGAAAGAGAGGAC
PBM binding z-score: 0.317
--
residues: CCTTACGGGTCACCGACAGGTTATAGCATTTGGA
PBM binding z-score: 2.16
--
residues: CGAACCAGGTCAAGGACAGTGAATCTCCGCACGC
PBM binding z-score: 1.28
--
residues: GCTCGGAGGACAAGGTCTGAGCTTTGTCCGTAGA
PBM binding z-score: -1.11
--
residues: CGTCCAAGGCCAGAGAGGTCAGTGAATGCCGAGT
PBM binding z-score: -0.871
--
residues: GTAACGAGGGCAAGTTGATAGCAGAGTTTGATGG
PBM binding z-score: 0.279
